# Test system: Venturia inaequalis (Apples)
# ASSAY_PROCEDURE: Foliar fungal disease test on plants: Venturia inaequalis (Apples)
# Type: in vivo
# SETTINGS: 10 ppm foliar spray only, one or two days before inoculation
# Method: The compounds were tested against a variety of foliar fungal diseases of plants. The technique employed was as follows. The plants were grown in John Innes Potting Compost (No 1 or 2) in 4 cm diameter minipots. […] The disease level present (i.e. leaf area covered by actively sporulating disease) on each of the treated plants was recorded using the following assessment scale: Each assessment was then expressed as a percentage of the level of disease present on the untreated control plants. […]
ENDPOINT: POCO (Percentage of Control) disease level, Venturia inaequalis (Apples)

MOLECULE	EXPERIMENTAL_SYSTEM	RECORDED_MEASUREMENT
COC=C(C(=O)OC)c1ccccc1COC(=O)Nc1cccc(F)c1	Venturia inaequalis (Apples)	0 (0 = 0% disease present)
COC=C(C(=O)OC)c1ccccc1COC(=O)n1ccc2ccccc21	Venturia inaequalis (Apples)	30 (30 = 20.1-30% disease present)
COC=C(C(=O)OC)c1ccccc1COC(=S)Oc1ccccc1	Venturia inaequalis (Apples)	0 (0 = 0% disease present)
COC=C(C(=O)OC)c1ccccc1COC(=S)Nc1cccc(OC)c1	Venturia inaequalis (Apples)	60 (60 = 30.1-60% disease present)
COC=C(C(=O)OC)c1ccccc1COC(=O)N(C)c1ccccc1SC	Venturia inaequalis (Apples)	60 (60 = 30.1-60% disease present)
COC=C(C(=O)OC)c1ccccc1COC(=S)Nc1cccc(F)c1	Venturia inaequalis (Apples)	60 (60 = 30.1-60% disease present)
COC=C(C(=O)OC)c1ccccc1COC(=S)Nc1ccccc1	Venturia inaequalis (Apples)	0 (0 = 0% disease present)
COC=C(C(=O)OC)c1ccccc1COC(=O)Nc1cccc(SC)c1	Venturia inaequalis (Apples)	0 (0 = 0% disease present)

----------
// reported POCO (Percentage of Control) disease level, Septoria nodorum (Wheat) for each item listed
# Test system: Septoria nodorum (Wheat)
# ASSAY_PROCEDURE: Foliar fungal disease test on plants: Septoria nodorum (Wheat)
# Assay type: in vivo
# SETTINGS: 100 ppm a.i. foliar spray or root drench (approx. 40 ppm in dry soil), one or two days before inoculation
ENDPOINT: POCO (Percentage of Control) disease level, Septoria nodorum (Wheat)

MOLECULE	EXPERIMENTAL_SYSTEM	RECORDED_MEASUREMENT
CNC(=O)C(=NOC)c1ccccc1COC(=O)N(C)c1ccccc1	Septoria nodorum (Wheat)	5 (5 = 3.1-5% disease present)
COC=C(C(=O)OC)c1ccccc1COC(=O)Nc1ccccc1F	Septoria nodorum (Wheat)	0 (0 = 0% disease present)
COC=C(C(=O)OC)c1ccccc1COC(=O)Nc1ccccc1Cl	Septoria nodorum (Wheat)	10 (10 = 5.1-10% disease present)
COC=C(C(=O)OC)c1ccccc1COC(=O)N(C)c1cc(F)ccc1F	Septoria nodorum (Wheat)	0 (0 = 0% disease present)
COC=C(C(=O)OC)c1ccccc1COC(=O)Nc1ccccc1[N+](=O)[O-]	Septoria nodorum (Wheat)	0 (0 = 0% disease present)
COC=C(C(=O)OC)c1ccccc1OC(=O)Nc1ccc(F)cc1F	Septoria nodorum (Wheat)	0 (0 = 0% disease present)
COC=C(C(=O)OC)c1ccccc1COC(=O)N(C(C)=O)c1ccccc1Cl	Septoria nodorum (Wheat)	10 (10 = 5.1-10% disease present)
COC=C(C(=O)OC)c1ccccc1COC(=O)N(C)c1c(F)cccc1F	Septoria nodorum (Wheat)	0 (0 = 0% disease present)
COC=C(C(=O)OC)c1ccccc1COC(=O)NCc1ccccc1	Septoria nodorum (Wheat)	30 (30 = 20.1-30% disease present)
COC=C(C(=O)OC)c1ccccc1COC(=O)Nc1ccc(OC)nc1	Septoria nodorum (Wheat)	30 (30 = 20.1-30% disease present)
COC=C(C(=O)OC)c1ccccc1COC(=O)N(C)c1ccccc1F	Septoria nodorum (Wheat)	0 (0 = 0% disease present)
CCN(C(=O)OCc1ccccc1C(=COC)C(=O)OC)c1ccc(F)cc1F	Septoria nodorum (Wheat)	0 (0 = 0% disease present)
